Target: Androgen Receptor (AR) (Homo sapiens, UniProt P10275, T878A)
Construct: cell based immuno-fluorescence assay using the LNCaP prostate epithelial cell line; endogenous in cells; host or cells: LNCaP clone FGC (ATCC CRL-1740)
Sequence (P10275 1-920 T878A): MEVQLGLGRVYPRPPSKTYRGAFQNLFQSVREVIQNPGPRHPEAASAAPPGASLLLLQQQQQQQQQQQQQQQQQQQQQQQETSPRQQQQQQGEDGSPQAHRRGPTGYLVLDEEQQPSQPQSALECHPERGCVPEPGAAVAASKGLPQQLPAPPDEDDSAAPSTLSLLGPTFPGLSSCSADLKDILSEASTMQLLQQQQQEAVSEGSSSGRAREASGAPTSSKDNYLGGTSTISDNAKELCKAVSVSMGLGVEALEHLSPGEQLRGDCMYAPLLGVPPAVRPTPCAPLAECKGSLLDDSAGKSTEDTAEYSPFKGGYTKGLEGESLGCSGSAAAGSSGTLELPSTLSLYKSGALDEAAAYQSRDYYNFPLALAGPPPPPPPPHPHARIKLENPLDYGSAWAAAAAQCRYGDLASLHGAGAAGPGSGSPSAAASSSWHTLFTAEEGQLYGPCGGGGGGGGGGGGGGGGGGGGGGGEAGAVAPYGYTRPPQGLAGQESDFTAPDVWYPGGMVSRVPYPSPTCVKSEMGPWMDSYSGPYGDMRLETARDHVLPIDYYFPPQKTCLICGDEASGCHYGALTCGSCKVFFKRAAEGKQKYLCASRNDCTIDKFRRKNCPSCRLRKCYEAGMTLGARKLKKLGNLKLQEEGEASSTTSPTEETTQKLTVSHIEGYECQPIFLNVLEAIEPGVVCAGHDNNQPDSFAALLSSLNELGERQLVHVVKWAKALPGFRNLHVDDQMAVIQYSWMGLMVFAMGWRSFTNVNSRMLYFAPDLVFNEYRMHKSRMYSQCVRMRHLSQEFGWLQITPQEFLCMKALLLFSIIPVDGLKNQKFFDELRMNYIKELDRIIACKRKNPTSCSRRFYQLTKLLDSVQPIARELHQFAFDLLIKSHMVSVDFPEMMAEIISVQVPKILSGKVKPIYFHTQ
Experiment: LNCaP Androgen Receptor Down-regulation Cell Assay (immunofluorescence end point)
Type: cell-based
Settings: LNCaP prostate carcinoma cells, compound incubation 20-22 hours, 50% reduction of the AR signal; read-out: Androgen Receptor Down-regulation Assay (a) IC50/μM
recorded-endpoint: DC50 (µM)
Numbers only, in µM.

Here is how some molecules turned out for DC50.
# molecule, meas-value
data = [
    ("FC(F)(F)c1nnc2ccc(N3CCC(c4c[nH]c5cccnc45)CC3)nn12", 0.75),
    ("FC(F)(F)c1nnc2ccc(N3CCN(Cc4cccc(Cl)c4)CC3)nn12", 0.36),
    ("FC(F)(F)c1nnc2ccc(N3CCN(Cc4ccc5c(c4)OCCO5)CC3)nn12", 1.5),
    ("COc1ccc(CN2CCN(c3ccc4nnc(C(F)F)n4n3)CC2)c(F)c1", 3.7),
    ("FC(F)(F)c1nnc2ccc(N3CCN(Cc4cccc5c4OCCO5)CC3)nn12", 2.3),
    ("FC(F)(F)c1nnc2ccc(N3CCC(c4cccc(OCc5cnco5)c4)CC3)nn12", 0.6),
    ("CC(c1ccccc1)N1CCN(c2ccc3nnc(C(F)(F)Cl)n3n2)CC1 (stereo not drawn)", 0.74),
    ("CCOc1ccc(CN2CCN(c3ccc4nnc(C(F)(F)F)n4n3)CC2)cn1", 2.5),
    ("FC(F)(F)c1nnc2ccc(N3CCC(COc4cccc(Cl)c4)CC3)nn12", 3.2),
    ("Fc1ccc(-c2cccc(CN3CCN(c4ccc5nnc(C(F)(F)F)n5n4)CC3)c2)cc1", 1.9),
]

Please supply DC50 for each of the following items, keeping them in order.
1. FC(F)(Cl)c1nnc2ccc(N3CCN(Cc4ccsc4)CC3)nn12
2. C[C@@H]1CN(Cc2ccc(F)cc2)CCN1c1ccc2nnc(C(F)(F)F)n2n1

1: 2.1; 2: 3.5

---

Would you kindly list DC50 for each of these compounds?
Molecular target: Androgen Receptor (AR) (Homo sapiens, UniProt P10275, T878A)
Construct: cell based immuno-fluorescence assay using the LNCaP prostate epithelial cell line; endogenous in cells; host or cells: LNCaP clone FGC (ATCC CRL-1740)
Sequence (P10275 1-920 T878A): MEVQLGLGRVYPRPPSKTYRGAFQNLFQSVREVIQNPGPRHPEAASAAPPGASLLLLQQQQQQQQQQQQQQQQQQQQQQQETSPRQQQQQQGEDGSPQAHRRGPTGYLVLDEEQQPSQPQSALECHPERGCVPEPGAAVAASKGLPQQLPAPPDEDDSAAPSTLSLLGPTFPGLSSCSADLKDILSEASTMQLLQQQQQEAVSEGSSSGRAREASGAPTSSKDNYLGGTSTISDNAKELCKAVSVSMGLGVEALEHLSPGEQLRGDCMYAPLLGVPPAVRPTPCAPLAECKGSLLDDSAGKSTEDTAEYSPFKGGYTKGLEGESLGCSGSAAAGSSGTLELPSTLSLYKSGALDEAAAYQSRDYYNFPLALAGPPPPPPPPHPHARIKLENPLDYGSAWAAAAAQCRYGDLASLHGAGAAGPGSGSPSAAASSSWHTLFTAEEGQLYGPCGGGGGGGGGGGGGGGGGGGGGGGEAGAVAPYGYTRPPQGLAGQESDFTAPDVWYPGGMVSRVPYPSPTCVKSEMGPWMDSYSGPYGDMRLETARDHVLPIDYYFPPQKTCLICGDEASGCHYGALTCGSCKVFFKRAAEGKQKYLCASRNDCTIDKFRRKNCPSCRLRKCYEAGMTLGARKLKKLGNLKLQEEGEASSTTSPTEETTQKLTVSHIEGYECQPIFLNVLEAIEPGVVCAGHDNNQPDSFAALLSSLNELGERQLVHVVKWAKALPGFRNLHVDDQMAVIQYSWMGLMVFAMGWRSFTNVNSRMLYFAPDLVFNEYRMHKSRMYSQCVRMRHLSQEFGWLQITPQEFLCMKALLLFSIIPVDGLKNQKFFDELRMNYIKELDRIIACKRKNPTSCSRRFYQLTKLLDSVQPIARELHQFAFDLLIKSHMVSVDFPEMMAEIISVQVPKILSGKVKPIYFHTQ
Experiment: LNCaP Androgen Receptor Down-regulation Cell Assay (immunofluorescence end point)
Assay type: cell-based
Settings: LNCaP prostate carcinoma cells, compound incubation 20-22 hours, 50% reduction of the AR signal; read-out: Androgen Receptor Down-regulation Assay (a) IC50/μM
Give bare numbers, in µM.

# compound, unit-abbrev, DC50
records = [
    ("CS(=O)(=O)c1ccc(F)cc1CN1CCN(c2ccc3nnc(C(F)(F)F)n3n2)CC1", "µM", 8.8),
    ("FC(F)(F)c1nnc2ccc(N3CCN(Cc4nc5ccccc5s4)CC3)nn12", "µM", 1.5),
    ("Fc1ccc(CN2[C@@H]3CC[C@H]2CN(c2ccc4nnc(C(F)(F)F)n4n2)C3)cc1", "µM", 1.1),
    ("FC(F)(Cl)c1nnc2ccc(N3CCN(c4c(Cl)cncc4Cl)CC3)nn12", "µM", 0.77),
    ("N#Cc1ccc(OCC2CCN(c3ccc4nnc(C(F)(F)F)n4n3)CC2)cc1", "µM", 0.96),
    ("Fc1ccc(C(F)F)c(CN2CCN(c3ccc4nnc(C(F)(F)F)n4c3)CC2)c1", "µM", 1.9),
]

Please supply DC50 for each of the following items, keeping them in order.
1. CCCCOc1ccc(CN2CCN(c3ccc4nnc(C(F)(F)F)n4n3)CC2)cc1
2. Fc1cccc(CN2CCN(c3ccc4nnc(C(F)(F)F)n4n3)CC2)c1C(F)(F)F
3. COc1ccc2[nH]cc(C3CCN(c4ccc5nnc(C(F)(F)F)n5n4)CC3)c2c1
4. FC(F)(F)c1nnc2ccc(N3CCC(c4cn(CCN5CCCC5)c5ccccc45)CC3)nn12
5. Cc1cc(CN2CC3CN(c4ccc5nnc(C(F)(F)F)n5n4)CC3C2)ccn1 (stereo not drawn)
6. FC(F)(F)c1nnc2ccc(N3CCN(c4ccc(OCCN5CCCC5)cc4)CC3)nn12
7. N#Cc1ccc(O[C@@H]2CCN(c3ccc4nnc(C(F)(F)F)n4n3)C2)cc1
8. FC(F)(F)c1cccc(CN2CCN(c3ccc4nnc(C(F)(F)Cl)n4n3)CC2)c1 [Example 347]

[7.2, 1.5, 0.43, 2.2, 1.7, 2.2, 2, 0.97]

Please supply DC50 for each of the following items, keeping them in order.
1. C[C@@H]1CN(c2ccc3nnc(C(F)(F)F)n3n2)CCN1Cc1ccncc1
2. N#Cc1cccc(CN2CCN(c3ccc4nnc(C(F)(F)F)n4n3)CC2)c1
3. Fc1ccc(CC2CCN(c3ccc4nnc(C(F)(F)F)n4n3)CC2)cc1
4. N#Cc1ccc(CN2CCN(c3ccc4nnc(C(F)(F)Cl)n4n3)CC2)cc1

1. 9.5
2. 1.5
3. 1.4
4. 2.1

Please supply DC50 for each of the following items, keeping them in order.
1. FC(F)(F)c1nnc2ccc(N3CCC(Oc4ccncc4)CC3)nn12
2. C[C@@H]1CN(Cc2ccccc2)[C@@H](C)CN1c1ccc2nnc(C(F)(F)F)n2n1
3. COCCCC(=O)Nc1cccc(C2CCN(c3ccc4nnc(C(F)(F)F)n4n3)CC2)c1
4. FC(F)c1nnc2ccc(N3CCC(c4c[nH]c5ccccc45)CC3)nn12

3.6
6.8
5.4
0.63
